- System: Mucor hiemalis
- ASSAY EXPLANATION: Antifungal activity against Mucor hiemalis DSM 2656 assessed as inhibition of fungal growth incubated for overnight by serial dilution assay
- Format: functional, organism-based
Activity calls are given as the source filed them. No cut-off for these calls is given here.
ENDPOINT: Activity

[[record]]
smiles_structure = "CC(C)[C@H]1CC[C@H](C)c2c(O)c(O)c(C=O)c(C3=C(O)C(=O)C(c4c(C=O)c(O)c(O)c5c4[C@@H](C(C)C)CC[C@@H]5C)=C(O)C3=O)c21"
measured = "inactive"

[[record]]
smiles_structure = "CC1=C(O)C(=O)C(c2c(C=O)c(O)c(O)c3c2[C@@H](C(C)C)CC[C@@H]3C)=C(O)C1=O"
measured = "inactive"

[[record]]
smiles_structure = "Cc1c(O)c(O)c(C(C)C)c2c1CCC(C(=O)O)=C2"
measured = "inactive"


FYI, the data here is from ChEMBL document CHEMBL5233291.
